Target: Sphingosine 1-phosphate receptor 4 (Homo sapiens)
Sequence (O95977 whole entry): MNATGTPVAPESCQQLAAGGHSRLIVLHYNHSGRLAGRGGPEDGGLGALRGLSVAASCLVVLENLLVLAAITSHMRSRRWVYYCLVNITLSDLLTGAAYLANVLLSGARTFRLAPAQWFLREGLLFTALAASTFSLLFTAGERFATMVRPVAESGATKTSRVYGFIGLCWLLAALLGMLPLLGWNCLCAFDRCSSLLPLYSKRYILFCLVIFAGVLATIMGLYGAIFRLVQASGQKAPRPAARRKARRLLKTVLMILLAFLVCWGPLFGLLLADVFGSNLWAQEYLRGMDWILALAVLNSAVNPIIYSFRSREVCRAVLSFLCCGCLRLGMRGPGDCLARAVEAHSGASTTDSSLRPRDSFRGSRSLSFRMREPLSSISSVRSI
Assay: Inhibition of [33P]-S1P binding to human Sphingosine 1-phosphate receptor 4 expressed on CHO cell membranes
For each of the molecules below, state its IC50.

Query: State, in one line, measured IC50 of CCCCCCCCCCCCCCC1CCCN1CCCP(=O)(O)O (centres undefined)
Response: > 10 µM

Query: Check the records and state IC50 for `CCCCCCCCCCCCCCN1CCC(O)(P(=O)(O)O)CC1`
Response: > 10 µM

Query: Please report IC50 for the following molecule: CCCCCCCCCCCCCCC1CC(O)(P(=O)(O)O)CCN1 (centres undefined)
Response: > 1 µM

Query: Item CCCCCCCCCCCCCC1CCCCN1CCCP(=O)(O)O (centres undefined) : provide IC50
Response: > 10 µM
